Test system: EPHA4;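 further: KINOMEscan kinase panel screen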
protocolConditions: concentration: 1 μM, replicates: in singlicate; n = 1
measuredMetric: %Inh (%)
Give bare numbers, in %.

Consider the worked cases shown below.
compound	assaySystem	%Inh [%]
O=C(Nc1n[nH]c2nc(-c3ccccc3)ccc12)C1CC1	EPHA4	0
O=C(O)C(F)(F)F.O=c1[nH]ccc2nc(N[C@@H]3CCNC3)nc(Nc3ccc4c(c3)S(=O)(=O)CC4)c12	EPHA4	16

Provide the reported %Inh of each entry below, same order.
1. Cc1ccc(C)c(NC(=O)Nc2ccc(C)c(-c3ccc(C(=O)Nc4ccncc4)cc3)c2)c1
2. CCn1cnc2c(NCc3ccccc3)ncnc21
3. COc1cc(Nc2nccc(N3CCC(NC(=O)Nc4ccc5c(c4)OCO5)C3)n2)cc(OC)c1OC (centres unmarked)
4. O=C(Nc1n[nH]c2cc(-c3cccs3)ccc12)C1CC1

1. 29
2. 7
3. 7
4. 0

# batch size: 2; output %Inh per entry
1. CC(C)c1nc(-c2cccc(NS(=O)(=O)c3c(F)cccc3F)c2)c(-c2ccnc(Nc3ccc(N4CCOCC4)nc3)n2)s1.Cl
2. COc1ccc(NC(=O)c2ccoc2)cc1-c1ccc(C(=O)NCC2CC2)cc1

27
0
